Experiment: Pharmacokinetic evaluation by oral administration to a mouse (HPLC/MS of blood plasma)
Type: in vivo, ICR mice
Details: 50 mg/kg oral, blood plasma thirty minutes later, HPLC (MS for No. 1)
measurement-kind: in vivo metabolic stability

Incoming: Request the reported in vivo metabolic stability associated with OC(/C=C/c1ccc2c(c1)OCO2)c1ccc(-c2ccccc2)cc1F (stereo not shown)
Outgoing: high

Incoming: Request the reported in vivo metabolic stability associated with O=C(/C=C/c1ccc2c(c1)OCO2)c1ccc(-c2ccccc2)cc1 [Compound No. 1, reference compound]
Outgoing: low

Incoming: Request the reported in vivo metabolic stability associated with OC(/C=C/c1ccc2c(c1)OCO2)c1ccc(-c2ccc(F)cc2)cc1 (stereo not shown)
Outgoing: high

Incoming: Request the reported in vivo metabolic stability associated with OC(/C=C/c1ccc2c(c1)OCO2)c1ccc(-c2ccccc2)cc1 (stereo not shown)
Outgoing: high

This collection of values is drawn from patent US12516043B2.
